Below is a list of entries, each paired with its recorded TGI value.
test system: OVCAR-5 ovarian; test: NCI tumour cell line growth inhibition, 48 h
propertyLabel: TGI

- compound: "COc1cc(C(c2cccc3ccccc23)N2C(=O)CCC2C(=O)NCc2ccccc2)cc(OC)c1OC (stereo not given)"
  propertyLabel: "TGI"
  recordedValue: "> 100 µM"
- compound: "CCOC(=O)c1c(NCc2ccccc2)n(-c2ccccc2)c(=S)n(-c2ccccc2)c1=O"
  propertyLabel: "TGI"
  recordedValue: "> 100 µM"
- compound: "Cc1nn(C(=O)c2ccncc2)c2c1C(c1cccc([N+](=O)[O-])c1)SC(N)=N2 (stereo not given)"
  propertyLabel: "TGI"
  recordedValue: "> 10 µM"
- compound: "Cc1cc(O)ccc1C1(c2ccc(F)cc2)OC(=O)c2ccccc21 (stereo not given)"
  propertyLabel: "TGI"
  recordedValue: "20.1 µM"
- compound: "CC(NNC(=O)c1ccncc1)c1ccc(Cl)c(Cl)c1 (stereo not given)"
  propertyLabel: "TGI"
  recordedValue: "> 100 µM"
